# ASSAYED TARGET: c-Myc/Max/Ebox DNA (Homo sapiens, UniProt P01106)
# Construct: his6 (cleaved yes)
# Sequence (P01106 whole entry): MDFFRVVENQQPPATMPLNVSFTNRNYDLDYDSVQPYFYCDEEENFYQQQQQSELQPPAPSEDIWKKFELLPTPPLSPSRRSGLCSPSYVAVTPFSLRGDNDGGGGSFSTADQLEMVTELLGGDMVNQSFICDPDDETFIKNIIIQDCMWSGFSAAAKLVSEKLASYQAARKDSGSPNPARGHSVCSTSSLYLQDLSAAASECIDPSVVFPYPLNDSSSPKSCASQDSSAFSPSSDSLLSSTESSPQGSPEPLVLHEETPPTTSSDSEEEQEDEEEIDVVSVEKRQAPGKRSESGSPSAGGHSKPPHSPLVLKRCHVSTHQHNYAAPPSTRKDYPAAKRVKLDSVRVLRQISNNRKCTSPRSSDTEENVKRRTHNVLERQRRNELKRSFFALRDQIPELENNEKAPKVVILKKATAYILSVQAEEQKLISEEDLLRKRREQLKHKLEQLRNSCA
# METHOD SUMMARY: c-Myc/Max/Ebox DNA AlphaScreen Assay
# SETTINGS: free c-Myc 20 nM, his6-Max 5 nM, biotinylated Ebox oligo 10 nM, 2 hour incubation
Quick reference for IC50 among some molecules

{"columns": ["MOLECULE", "IC50"],
 "data": [
  ["O=C(CCNCC1CCOCC1)Nc1sc2c(c1-c1nc3cnccc3s1)CCNC2 [Compound 189]", "< 500 nM"],
  ["COCC(NCCC(=O)Nc1sc2c(c1-c1nc3cnccc3s1)CCNC2)C(C)C (stereo not drawn) [Compound 134]", "< 500 nM"],
  ["CC[C@H](C)NCCC(=O)Nc1sc2c(c1-c1nc3cnccc3s1)CCN[C@H]2C [Compound 234]", "< 500 nM"],
  ["Cc1cc(CC(C)NCCC(=O)Nc2sc3c(c2-c2nc4cnccc4s2)CCNC3)on1 (stereo not drawn) [Compound 156]", "< 500 nM"],
  ["CC1CN(CCC(=O)Nc2sc3c(c2-c2nc4cnccc4s2)CCNC3)CC(=O)N1 (stereo not drawn) [Compound 144]", "500 to 5000 nM"],
  ["O=C(CCN1CCC[C@@]2(CCCN2)C1)Nc1sc2c(c1-c1nc3cnccc3s1)CCNC2 [Compound 124]", "< 500 nM"],
  ["CC(=O)Nc1sc2c(c1-c1nc3cnccc3s1)CCNC2 [Compound 100]", "< 500 nM"],
  ["CCN1C(C)Cc2c(sc(NC(C)=O)c2-c2nc3cnccc3s2)C1C (stereo not drawn) [Compound 117]", "500 to 5000 nM"],
  ["COCCNCCC(=O)Nc1sc2c(c1-c1nc3cnccc3s1)CCNC2 [Compound 216]", "< 500 nM"],
  ["C[C@@H](NCCC(=O)Nc1sc2c(c1-c1nc3cnccc3s1)CCNC2)c1cnc2ccccn12 [Compound 192]", "< 500 nM"],
  ["O=C(CCNCc1cnc2ccccn12)Nc1sc2c(c1-c1nc3cnccc3s1)CCNC2 [Compound 212]", "5000 to 25000 nM"],
  ["O=C(CCN1CC[C@@H]2NCC[C@@H]21)Nc1sc2c(c1-c1nc3cnccc3s1)CCNC2 [Compound 155]", "< 500 nM"],
  ["CC(=O)Nc1sc2c(c1-c1nc3cnccc3s1)C[C@@H](C)N[C@@H]2C (single isomer, unassigned) [Compound 110]", "< 500 nM"],
  ["Cc1coc(CNCCC(=O)Nc2sc3c(c2-c2nc4cnccc4s2)CCNC3)n1 [Compound 140]", "500 to 5000 nM"],
  ["CCC(C)NCCC(=O)Nc1sc2c(c1-c1nc3cnccc3s1)CCNC2 (stereo not drawn) [Compound 103]", "< 500 nM"],
  ["O=C(CCNCc1ncon1)Nc1sc2c(c1-c1nc3cnccc3s1)CCNC2 [Compound 181]", "< 500 nM"],
  ["O=C(CCN1CCC2COCC2C1)Nc1sc2c(c1-c1nc3cnccc3s1)CCNC2 (stereo not drawn) [Compound 213]", "< 500 nM"],
  ["CC[C@@H](C)NCCC(=O)Nc1sc2c(c1-c1nc3cnccc3s1)CCNC2 [Compound 217]", "< 500 nM"],
  ["O=C(CCNC1CCNCC1)Nc1sc2c(c1-c1nc3cnccc3s1)CCNC2 [Compound 165]", "< 500 nM"],
  ["CC(=O)Nc1sc2c(c1-c1nc3cnccc3s1)CC(C)NC2C (mixture of isomers) [Compound 109]", "500 to 5000 nM"],
  ["O=C(CCN1CC2(CCOC2)C1)Nc1sc2c(c1-c1nc3cnccc3s1)CCNC2 [Compound 125]", "< 500 nM"],
  ["Cc1cc(C)n(CCNCCC(=O)Nc2sc3c(c2-c2nc4cnccc4s2)CCNC3)n1 [Compound 136]", "500 to 5000 nM"],
  ["CNCCC(=O)Nc1sc2c(c1-c1nc3cnccc3s1)CCNC2 [Compound 224]", "< 500 nM"],
  ["O=C(CCN1CCc2[nH]ncc2C1)Nc1sc2c(c1-c1nc3cnccc3s1)CCNC2 [Compound 178]", "< 500 nM"],
  ["Cc1cc(CNCCC(=O)Nc2sc3c(c2-c2nc4cnccc4s2)CCNC3)no1 [Compound 191]", "500 to 5000 nM"],
  ["CN(CCC(=O)Nc1sc2c(c1-c1nc3cnccc3s1)CCNC2)Cc1cnc(Cl)s1 [Compound 157]", "500 to 5000 nM"],
  ["CN(CCCn1ccnc1)CCC(=O)Nc1sc2c(c1-c1nc3cnccc3s1)CCNC2 [Compound 190]", "< 500 nM"]
]}
